Attribution: patent US20220112288A1

# tgt: T1, Recombinant human CD4 (R&D Systems, Cat. 10327-CD) (human, UniProt P01730 26-390, limits assumed)
# T1 construct: Bought protein; also called huCD4
# test.protocol: BLI (Octet Red 384), non-clonal supernatant captured on AMC sensors, 100 nM human CD4, 1:1 local fit;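 further: hybridoma antibodies from supernatants, one CD4 concentration giving single-point kinetics per supernatant, with curves fitted over both association and dissociation phases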
Could you please report measured koff for the items listed next?
Note: unit s⁻¹ is implicit; provide only the numeric part.

Qu. Tell me koff reported for 75110_01G11A (antibody, V domains shown, Tested as non-clonal AlivaMab Mouse hybridoma supernatant (human variable regions and human kappa, mouse Fc); also called ADS75110 non-clonal supernatant 01G11A) VH: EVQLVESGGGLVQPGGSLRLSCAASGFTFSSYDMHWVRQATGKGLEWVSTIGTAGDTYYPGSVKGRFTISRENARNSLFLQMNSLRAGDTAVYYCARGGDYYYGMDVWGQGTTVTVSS VL: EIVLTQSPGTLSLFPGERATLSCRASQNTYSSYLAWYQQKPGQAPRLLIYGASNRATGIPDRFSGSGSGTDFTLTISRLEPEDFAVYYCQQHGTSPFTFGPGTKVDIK
Ans. 0.00025

Qu. Tell me koff reported for 75110_01K10A (antibody, V domains shown, Tested as non-clonal AlivaMab Mouse hybridoma supernatant (human variable regions and human kappa, mouse Fc); also called ADS75110 non-clonal supernatant 01K10A) VH: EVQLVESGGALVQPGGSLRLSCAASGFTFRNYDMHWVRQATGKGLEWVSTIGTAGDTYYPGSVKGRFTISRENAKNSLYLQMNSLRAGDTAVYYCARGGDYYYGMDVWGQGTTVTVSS VL: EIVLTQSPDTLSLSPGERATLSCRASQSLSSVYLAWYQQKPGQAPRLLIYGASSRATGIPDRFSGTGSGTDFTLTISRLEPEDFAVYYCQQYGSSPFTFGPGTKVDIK
Ans. 0.00042

Qu. Tell me koff reported for 75110_10N21A (antibody, V domains shown, Tested as non-clonal AlivaMab Mouse hybridoma supernatant (human variable regions and human kappa, mouse Fc); also called ADS75110 non-clonal supernatant 10N21A) VH: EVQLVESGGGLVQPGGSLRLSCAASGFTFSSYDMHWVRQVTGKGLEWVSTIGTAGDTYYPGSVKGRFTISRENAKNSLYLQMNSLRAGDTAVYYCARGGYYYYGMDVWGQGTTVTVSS VL: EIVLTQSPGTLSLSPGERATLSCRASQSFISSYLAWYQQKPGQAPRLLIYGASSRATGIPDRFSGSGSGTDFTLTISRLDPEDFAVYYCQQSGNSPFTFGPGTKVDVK
Ans. 0.000133
